tested on: Septoria tritici; assay: Fungicidal activity: leaf blotch of wheat, one-day protectant and three-day curative tests on wheat plants; assay type: in vivo; conditions: Zymoseptoria tritici, 24 h; One-Day Protectant (1 DP), 100 ppm, wheat plants (variety Yuma); read-out: SEPTTR 100 PPM 1 DP (% Disease Control rating)
experimental-readout: pest or weed control at 100 ppm

In the examples that follow, each entry is paired with its recorded pest or weed control at 100 ppm.
{"smiles-notation": "C/N=c1\\c(F)cn(S(=O)(=O)c2cccc(C#N)c2)c(=O)n1C", "pest or weed control at 100 ppm": "26 to 50%"}
{"smiles-notation": "CC(=O)/N=c1\\c(F)cn(S(=O)(=O)c2ccc(C(C)C)cc2)c(=O)n1C", "pest or weed control at 100 ppm": "76 to 100%"}
{"smiles-notation": "CCc1ccc(S(=O)(=O)n2cc(F)/c(=N\\Cc3ccccc3F)n(C)c2=O)cc1", "pest or weed control at 100 ppm": "0 to 25%"}

Give its pest or weed control at 100 ppm value. Item: "C/N=c1\c(F)cn(S(=O)(=O)c2ccc(OC)cc2)c(=O)n1C" 76 to 100%

Give its pest or weed control at 100 ppm value. Item: "COC(=O)/N=c1\c(F)cn(S(=O)(=O)c2ccc(OC)cc2)c(=O)n1C" 0 to 25%

Give its pest or weed control at 100 ppm value. Item: "C/N=c1\c(F)cn(S(=O)(=O)c2cccs2)c(=O)n1C" 76 to 100%

Give its pest or weed control at 100 ppm value. Item: "CC(=O)/N=c1\c(F)cn(S(=O)(=O)c2ccccc2)c(=O)n1C" 76 to 100%

Give its pest or weed control at 100 ppm value. Item: "C/N=c1\c(F)cn(S(=O)(=O)c2cc(Cl)sc2Cl)c(=O)n1C" 76 to 100%

Give its pest or weed control at 100 ppm value. Item: "COC(=O)/N=c1\c(F)cn(S(=O)(=O)c2ccc(C(C)C)cc2)c(=O)n1C" 0 to 25%

The measured values listed here are drawn from patent US10059703B2.
